Values from patent US12655184B2

Assignment: determine reported solubility for the given sequences.
test: solubility in phosphate buffer with/without 0.9% NaCl, pH serially lowered with acetic acid, concentration remaining in solution; format: physicochemical; conditions: pH 9, PBS with 0.9% NaCl, pH 9; read-out: Solubility pH 9
Ends that are not written are not given here.
Give bare numbers, in µg/mL.

DMEEMMSEQENPDSSEPVVEDE [SEQ ID NO: 30]    548
NEGIEITEVTAPPEDNPVEDSQ [SEQ ID NO: 31]    866
GEDLQQEDGPTGEPQQEDDEFL [SEQ ID NO: 29]    707

Let us examine a further case.
Data request: For the sequence DSQVIVEEVSIFPVEEQQEVPPD [SEQ ID NO: 32] , what solubility is on record?
Data returned: 426

###

Task for the reader: assign each of the following sequences its reported solubility.
test: solubility in phosphate buffer with/without 0.9% NaCl, pH serially lowered with acetic acid, concentration remaining in solution; type: physicochemical; details: pH 6, PBS without NaCl, pH 6; read-out: Solubility pH 6
Ends that are not written are not given here.
One number for each entry, in µg/mL.

DMEEMMSEQENPDSSEPVVEDE [SEQ ID NO: 30]    674
DSQVIVEEVSIFPVEEQQEVPPD [SEQ ID NO: 32]    404

Hi, could you look up solubility for each item in my list?
1. NEGIEITEVTAPPEDNPVEDSQ [SEQ ID NO: 31]
2. GEDLQQEDGPTGEPQQEDDEFL [SEQ ID NO: 29]

Data returned:
1: 773; 2: 742

###

Field: solubility. Provide a value for each of the sequences that follow.
experiment: solubility by visual examination in ultrapure water, PBS and DMSO; type: physicochemical; details: DMSO; read-out: concentration range of measured solubility, DMSO
Ends that are not written are not given here.

Below, 2 sequences whose answers are already recorded.
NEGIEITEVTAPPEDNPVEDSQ [SEQ ID NO: 31]    ≤ 5000 µg/mL
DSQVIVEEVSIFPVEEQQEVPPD [SEQ ID NO: 32]    ≤ 10000 µg/mL

Shift focus to the following entry.
Data request: Give the measured solubility of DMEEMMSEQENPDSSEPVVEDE [SEQ ID NO: 30] .
Data returned: ≤ 10000 µg/mL

###

assay: solubility in phosphate buffer with/without 0.9% NaCl, pH serially lowered with acetic acid, concentration remaining in solution; type: physicochemical; settings: pH 9, PBS without NaCl, pH 9; read-out: Solubility pH 9
Ends that are not written are not given here.
result type: solubility
Please state the value followed by its unit.

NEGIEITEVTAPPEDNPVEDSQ [SEQ ID NO: 31]    857 µg/mL
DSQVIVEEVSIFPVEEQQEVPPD [SEQ ID NO: 32]    445 µg/mL

Below are 2 sequences. Give each one its solubility.
1. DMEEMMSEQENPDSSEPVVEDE [SEQ ID NO: 30]
2. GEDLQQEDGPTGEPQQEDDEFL [SEQ ID NO: 29]

Data returned:
1. 738 µg/mL
2. 757 µg/mL

###

assay: solubility in phosphate buffer with/without 0.9% NaCl, pH serially lowered with acetic acid, concentration remaining in solution; format: physicochemical; details: pH 5.5, PBS without NaCl, pH 5.5; read-out: Solubility pH 5.5
Ends that are not written are not given here.
result type: solubility (µg/mL)
Give bare numbers, in µg/mL.

Please review the following examples before continuing.
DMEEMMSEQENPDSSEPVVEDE [SEQ ID NO: 30]    667
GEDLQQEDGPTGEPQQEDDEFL [SEQ ID NO: 29]    738
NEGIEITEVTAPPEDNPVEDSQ [SEQ ID NO: 31]    819

Continue with the sequence presented below.
Data request: What measured solubility goes with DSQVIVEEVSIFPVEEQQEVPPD [SEQ ID NO: 32] ?
Data returned: 337
